# System: MCF7
# test-summary: Growth inhibition of human MCF7 cells after 72 hrs by MTT assay
# Assay type: functional, cell-based
# condition-context: MCF7, 72 h
assay-readout: IC50 (µM)
Lab book: enter the figure in µM, no units written.

| smiles-notation | readout-value |
| --- | --- |
| CCOC(CCNCc1c(C)ccc([C@@H](C)CCC=C(C)C)c1O)OCC | 10.3 |
| CC(C)=CCC[C@H](C)c1ccc(C)c2c1OCN(CC1CCNCC1)C2 | 8.1 |

Entry CC(C)=CCC[C@H](C)c1ccc(C)c2c1OCN(CCCCCO)C2 needs its IC50 filled in; supply it. 6.9

Entry CC(C)=CCC[C@H](C)c1ccc(C)c2c1OCN(CCO)C2 needs its IC50 filled in; supply it. 8.4

Entry CCOC(CCN1COc2c([C@@H](C)CCC=C(C)C)ccc(C)c2C1)OCC needs its IC50 filled in; supply it. 13.2

Entry COc1ccc(CCN2COc3c([C@@H](C)CCC=C(C)C)ccc(C)c3C2)cc1OC needs its IC50 filled in; supply it. 6.7

Entry CC(C)=CCC[C@H](C)c1ccc(C)c(CNCCCCCO)c1O needs its IC50 filled in; supply it. 7.6

###

# System: MCF7
# test-summary: Cytotoxicity against human MCF7 cells assessed as cell growth at 10 uM after 48 hrs by SRB assay relative to control
# Assay type: functional
# condition-context: MCF7, 48 h, read-out: Activity
growth at 10 µM values for the compounds below.
Lab book: enter the figure in %, no units written.

Please review the following examples before continuing.
| smiles-notation | experimental-target | readout-value |
| --- | --- | --- |
| CC(C)=CCC[C@H](C)c1ccc(C)c2c1OCN(CCCCC(=O)O)C2 | MCF7 | 92.5 |
| CC(C)=CCC[C@H](C)c1ccc(C)c2c1OCN(CCO)C2 | MCF7 | 83.9 |
| CC(C)=CCC[C@H](C)c1ccc(C)c2c1OCN(CC1CCNCC1)C2 | MCF7 | 36 |
| COc1ccc(CCN2COc3c([C@@H](C)CCC=C(C)C)ccc(C)c3C2)cc1OC | MCF7 | 4 |
| CC(C)=CCC[C@H](C)c1ccc(C)c(CO)c1O | MCF7 | 102 |

Entry CC(C)=CCC[C@H](C)c1ccc(C)c(CNCCCCC(=O)O)c1O needs its growth at 10 µM filled in; supply it. 101

Entry CC(C)=CCC[C@H](C)c1ccc(C)c(CNCCO)c1O needs its growth at 10 µM filled in; supply it. 105

###

growth at 10 µM values for the compounds below.
# Tested on: TK-10
# test-summary: Cytotoxicity against human TK10 cells assessed as cell growth at 10 uM after 48 hrs by SRB assay relative to control
# Type: functional
# condition-context: TK-10, 48 h, read-out: Activity
Lab book: enter the figure in %, no units written.

| smiles-notation | experimental-target | assay-readout | readout-value |
| --- | --- | --- | --- |
| COc1ccc(CCN2COc3c([C@@H](C)CCC=C(C)C)ccc(C)c3C2)cc1OC | TK-10 | growth at 10 µM | -26 |
| CC(C)=CCC[C@H](C)c1ccc(C)c(CNCCCCCO)c1O | TK-10 | growth at 10 µM | 92.2 |
| CC(C)=CCC[C@H](C)c1ccc(C)c2c1OCN(CC1CCNCC1)C2 | TK-10 | growth at 10 µM | 75 |

Entry CC(C)=CCC[C@H](C)c1ccc(C)c2c1OCN(CCO)C2 needs its growth at 10 µM filled in; supply it. 88.4

Entry CC(C)=CCC[C@H](C)c1ccc(C)c2c1OCN(CCCCCO)C2 needs its growth at 10 µM filled in; supply it. 73.7

Entry CC(C)=CCC[C@H](C)c1ccc(C)c(CNCCCCC(=O)O)c1O needs its growth at 10 µM filled in; supply it. 105
